System: Nicotinamide phosphoribosyltransferase (Homo sapiens)
Sequence (P43490 whole entry, the tested form may be a part): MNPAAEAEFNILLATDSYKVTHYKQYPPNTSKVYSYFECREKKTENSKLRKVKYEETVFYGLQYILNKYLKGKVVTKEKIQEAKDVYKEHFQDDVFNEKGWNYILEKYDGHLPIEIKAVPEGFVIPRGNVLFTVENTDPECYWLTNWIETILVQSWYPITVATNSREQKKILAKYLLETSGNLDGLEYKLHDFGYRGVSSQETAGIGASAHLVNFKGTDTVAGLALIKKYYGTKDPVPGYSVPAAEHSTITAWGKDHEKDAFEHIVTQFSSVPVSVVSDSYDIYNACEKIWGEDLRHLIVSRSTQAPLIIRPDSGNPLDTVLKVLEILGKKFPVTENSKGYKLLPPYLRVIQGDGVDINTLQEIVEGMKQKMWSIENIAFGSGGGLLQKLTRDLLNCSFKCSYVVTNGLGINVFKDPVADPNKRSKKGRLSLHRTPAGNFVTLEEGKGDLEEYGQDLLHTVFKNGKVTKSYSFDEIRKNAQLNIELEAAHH
Method Summary: Inhibition of human full length C-terminal flag/His-tagged NAMPT (1 to 491 residues) expressed in HEK293-6E cells by TR-FRET assay
pIC50: −log10 of the molar value.
Measured Attribute: pIC50

Some compounds with recorded pIC50:
Line Notation: O=C(NCc1ccncc1)Nc1ccc(F)c(F)c1
Measured Attribute: pIC50
Experimental Value: 3.07
//
Line Notation: O=C1OCCC/C1=C\Nc1ccccc1
Measured Attribute: pIC50
Experimental Value: 5.00
//
Line Notation: CC(C)CCNC(=O)c1ccc(NC(=O)Nc2ccc3nc[nH]c3c2)cc1
Measured Attribute: pIC50
Experimental Value: 7.10
//
Line Notation: Cc1ccc(Cn2nnc3cc(C(N)=O)ccc32)cc1
Measured Attribute: pIC50
Experimental Value: 5.10

1 = CCCc1cc(=O)[nH]c(Nc2ccccc2F)n1
2 = O=C(Cc1ccccc1)Nc1ccc2nc[nH]c2c1
## Task // task: argmin of pIC50 over [ 1 , 2 ] Please reply using the label of the selected record.
## Result 1

src = ChEMBL document CHEMBL4184099
